# System: UWB1 cells
# MEASUREMENT_DESCRIPTION: cells
# EXPERIMENTAL_CONTEXT: read-out: IC50 (μM) UWB1 cells, UWB1 cell viability
METRIC_NAME: log10 of IC50 (log10 of the value in µM)
Give log10 of IC50, with IC50 taken in µM.

Query string: Would you mind telling me what log10 of IC50 value was observed for "COC(=O)C[C@H]1[C@@H]2CC3=C(C)[C@@H](C4CCCCC4)C[C@@H]3O[C@@H]2[C@@H]2OC(=O)[C@]3(C)C=CC(=O)[C@@]1(C)[C@@H]23" ?
Result string: -0.80

Query string: Would you mind telling me what log10 of IC50 value was observed for "COC(=O)C[C@H]1[C@@H]2CC3=C(C)[C@@H](c4ccc(C(C)(C)C)cc4)C[C@@H]3O[C@@H]2[C@@H]2OC(=O)[C@]3(C)C=CC(=O)[C@@]1(C)[C@@H]23" ?
Result string: -0.85

Query string: Would you mind telling me what log10 of IC50 value was observed for "COC(=O)C[C@H]1[C@]2(C)C3=C(C)[C@H](c4ccoc4-c4cccc5c4ccn5C)C[C@H]3O[C@@H]2[C@@H]2OC(=O)[C@]3(C)C=CC(=O)[C@@]1(C)[C@@H]23" ?
Result string: -0.84

Query string: Would you mind telling me what log10 of IC50 value was observed for "COC(=O)C[C@H]1[C@@H]2CC3=C(C)[C@@H](c4ccc(OC)cc4)C[C@@H]3O[C@@H]2[C@@H]2OC(=O)[C@]3(C)C=CC(=O)[C@@]1(C)[C@@H]23" ?
Result string: -0.77

Query string: Would you mind telling me what log10 of IC50 value was observed for "COC(=O)C[C@H]1[C@]2(C)C3=C(C)[C@H](c4ccoc4-c4ccc5c(c4)OCO5)C[C@H]3O[C@@H]2[C@@H]2OC(=O)[C@]3(C)C=CC(=O)[C@@]1(C)[C@@H]23" ?
Result string: -0.42

Query string: Would you mind telling me what log10 of IC50 value was observed for "COC(=O)C[C@H]1[C@@H]2CC3=C(C)[C@@H](c4ccc(C=O)cc4)C[C@@H]3O[C@@H]2[C@@H]2OC(=O)[C@]3(C)C=CC(=O)[C@@]1(C)[C@@H]23" ?
Result string: -0.12

Query string: Would you mind telling me what log10 of IC50 value was observed for "COC(=O)C[C@H]1[C@]2(C)C3=C(C)[C@@H](c4ccc(-c5cc(C(C)(C)C)cc(C(C)(C)C)c5)cc4)C[C@H]3O[C@@H]2[C@@H]2OC(=O)[C@]3(C)C=CC(=O)[C@@]1(C)[C@@H]23" ?
Result string: -0.73

Query string: Would you mind telling me what log10 of IC50 value was observed for "COC(=O)C[C@H]1[C@]2(C)C3=C(C)[C@H](c4ccoc4-c4ccc(OC)cc4C)C[C@H]3O[C@@H]2[C@@H]2OC(=O)[C@]3(C)C=CC(=O)[C@@]1(C)[C@@H]23" ?
Result string: -0.67

Query string: Would you mind telling me what log10 of IC50 value was observed for "COC(=O)C[C@H]1[C@]2(C)C3=C(C)[C@@H](c4ccc(C(C)(C)C)cc4)C[C@H]3O[C@@H]2[C@@H]2OC(=O)[C@]3(C)C=CC(=O)[C@@]1(C)[C@@H]23" ?
Result string: -0.80

Query string: Would you mind telling me what log10 of IC50 value was observed for "COC(=O)C[C@H]1[C@@H]2CC3=C(C)[C@@H](c4ccc(C(=O)O)cc4)C[C@@H]3O[C@@H]2[C@@H]2OC(=O)[C@]3(C)C=CC(=O)[C@@]1(C)[C@@H]23" ?
Result string: 0.46
